The values you see were collected from paper PMC12560751.

# key: entry, value: inhibition at 100 µM
Target: recombinant hMAO B (Homo sapiens, UniProt P27338)
Sequence (P27338 whole entry): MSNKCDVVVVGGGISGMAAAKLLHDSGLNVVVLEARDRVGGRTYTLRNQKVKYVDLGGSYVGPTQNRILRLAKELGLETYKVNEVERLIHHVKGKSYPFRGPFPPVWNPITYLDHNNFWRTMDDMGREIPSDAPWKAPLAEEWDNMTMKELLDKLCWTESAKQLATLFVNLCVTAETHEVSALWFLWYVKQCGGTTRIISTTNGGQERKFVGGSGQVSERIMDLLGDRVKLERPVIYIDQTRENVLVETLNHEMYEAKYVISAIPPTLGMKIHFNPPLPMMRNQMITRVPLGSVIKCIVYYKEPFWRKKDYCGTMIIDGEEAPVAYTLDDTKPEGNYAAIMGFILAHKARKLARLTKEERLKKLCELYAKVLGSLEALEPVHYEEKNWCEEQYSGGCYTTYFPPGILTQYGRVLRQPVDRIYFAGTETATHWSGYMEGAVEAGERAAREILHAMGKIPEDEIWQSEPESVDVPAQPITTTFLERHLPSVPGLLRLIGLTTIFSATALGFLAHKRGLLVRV
Assay: MAO B inhibition, fluorometric method
Assay type: biochemical
Conditions: read-out: MAO B % inhibition
property_label: inhibition at 100 µM (%)

> print(dat)
                                   compound  u  data.value
1  COc1ccc(C(=O)C=Cc2ccc(NC(=O)CN3CCN(CCCO)CC3)cc2)cc1OC [Compound 4i]  %        47.4
2  COc1ccc(C(=O)C=Cc2ccc(NC(=O)CN3CCN(C)CC3)cc2)cc1OC [Compound 4a]  %        80.5
3  COc1ccc(C(=O)C=Cc2ccc(NC(=O)CN3CCN(C(C)=O)CC3)cc2)cc1OC [Compound 4g]  %        89.2
4  CCN1CCN(CC(=O)Nc2ccc(C=CC(=O)c3ccc(OC)c(OC)c3)cc2)CC1 [Compound 4b]  %        40.1
5  COc1ccc(C(=O)C=Cc2ccc(NC(=O)CN3CCN(CCCN(C)C)CC3)cc2)cc1OC [Compound 4k]  %        36.1
6  COc1ccc(C(=O)C=Cc2ccc(NC(=O)CN3CCN(C(C)C)CC3)cc2)cc1OC [Compound 4c]  %        28.9
7  COCCN1CCN(CC(=O)Nc2ccc(C=CC(=O)c3ccc(OC)c(OC)c3)cc2)CC1 [Compound 4h]  %        41.3
8  COc1ccc(C(=O)C=Cc2ccc(NC(=O)CN3CCN(CCN(C)C)CC3)cc2)cc1OC [Compound 4j]  %        40.1

---

Target: BChE (Homo sapiens, UniProt P06276)
Sequence (P06276 29-602, species assumed): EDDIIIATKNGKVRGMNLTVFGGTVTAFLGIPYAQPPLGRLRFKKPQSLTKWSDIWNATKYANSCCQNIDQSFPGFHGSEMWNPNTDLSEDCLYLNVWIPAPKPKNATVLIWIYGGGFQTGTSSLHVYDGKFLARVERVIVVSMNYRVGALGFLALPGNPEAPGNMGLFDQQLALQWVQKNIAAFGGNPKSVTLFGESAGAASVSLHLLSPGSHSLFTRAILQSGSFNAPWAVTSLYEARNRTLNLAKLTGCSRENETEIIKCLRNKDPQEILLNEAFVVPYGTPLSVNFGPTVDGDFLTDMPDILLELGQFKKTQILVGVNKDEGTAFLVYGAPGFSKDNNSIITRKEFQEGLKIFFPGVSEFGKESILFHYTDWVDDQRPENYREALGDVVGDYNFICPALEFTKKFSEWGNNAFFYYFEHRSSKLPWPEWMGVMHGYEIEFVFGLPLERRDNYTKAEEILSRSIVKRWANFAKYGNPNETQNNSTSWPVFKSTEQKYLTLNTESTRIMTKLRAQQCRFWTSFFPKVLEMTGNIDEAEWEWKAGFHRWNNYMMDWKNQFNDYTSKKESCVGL
Test: Anticholinesterase activity, modified colorimetric Ellman method
Assay type: biochemical
Conditions: read-out: BChE % inhibition
property_label: inhibition at 100 µM (%)

> print(dat)
                                   molecule  data.value
1  COc1ccc(C(=O)C=Cc2ccc(NC(=O)CN3CCN(C=O)CC3)cc2)cc1OC [Compound 4f]        24.3
2  COc1ccc(C(=O)C=Cc2ccc(NC(=O)CN3CCN(C(C)C)CC3)cc2)cc1OC [Compound 4c]        25.5
3  CCN1CCN(CC(=O)Nc2ccc(C=CC(=O)c3ccc(OC)c(OC)c3)cc2)CC1 [Compound 4b]          27
4  COc1ccc(C(=O)C=Cc2ccc(NC(=O)CN3CCN(CCN(C)C)CC3)cc2)cc1OC [Compound 4j]        28.4
5  COc1ccc(C(=O)C=Cc2ccc(NC(=O)CN3CCN(C(C)=O)CC3)cc2)cc1OC [Compound 4g]        29.9
6  C=CCN1CCN(CC(=O)Nc2ccc(C=CC(=O)c3ccc(OC)c(OC)c3)cc2)CC1 [Compound 4d]        20.1
7  COCCN1CCN(CC(=O)Nc2ccc(C=CC(=O)c3ccc(OC)c(OC)c3)cc2)CC1 [Compound 4h]        21.5
8  COc1ccc(C(=O)C=Cc2ccc(NC(=O)CN3CCN(C4CCCC4)CC3)cc2)cc1OC [Compound 4l]        32.7

---

Target: AChE (Homo sapiens)
Sequence (P22303 32-614): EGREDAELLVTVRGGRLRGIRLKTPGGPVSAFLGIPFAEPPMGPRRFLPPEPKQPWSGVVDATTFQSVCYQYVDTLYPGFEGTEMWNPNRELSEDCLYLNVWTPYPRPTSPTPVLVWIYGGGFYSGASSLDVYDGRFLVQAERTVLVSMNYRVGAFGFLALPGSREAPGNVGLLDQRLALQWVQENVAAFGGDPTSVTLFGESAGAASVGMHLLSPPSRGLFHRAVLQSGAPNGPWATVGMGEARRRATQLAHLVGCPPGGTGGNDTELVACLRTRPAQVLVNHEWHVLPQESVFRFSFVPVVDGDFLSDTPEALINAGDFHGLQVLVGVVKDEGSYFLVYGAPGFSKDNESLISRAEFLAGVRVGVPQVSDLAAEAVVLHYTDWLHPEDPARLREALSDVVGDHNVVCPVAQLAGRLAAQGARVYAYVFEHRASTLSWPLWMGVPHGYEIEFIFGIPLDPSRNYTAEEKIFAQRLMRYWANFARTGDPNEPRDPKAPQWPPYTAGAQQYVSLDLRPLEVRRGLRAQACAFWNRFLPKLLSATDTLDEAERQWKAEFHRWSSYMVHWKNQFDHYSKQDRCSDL
property_label: IC50 (nM)

> print(dat)
                                  cpd.smiles   u  result.comparator  data.value
 1  C=CCN1CCN(CC(=O)Nc2ccc(C=CC(=O)c3ccc(OC)c(OC)c3)cc2)CC1  nM                  >      100000
 2  COc1ccc(C(=O)C=Cc2ccc(NC(=O)CN3CCN(C(C)=O)CC3)cc2)cc1OC  nM                  =          27
 3  C#CCN1CCN(CC(=O)Nc2ccc(C=CC(=O)c3ccc(OC)c(OC)c3)cc2)CC1  nM                  >      100000
 4  COc1ccc(C(=O)C=Cc2ccc(NC(=O)CN3CCN(CCN(C)C)CC3)cc2)cc1OC  nM                  =          43
 5  COc1ccc(C(=O)C=Cc2ccc(NC(=O)CN3CCN(CCCN(C)C)CC3)cc2)cc1OC  nM                  =          39
 6  COc1ccc(C(=O)C=Cc2ccc(NC(=O)CN3CCN(C(C)C)CC3)cc2)cc1OC  nM                  >      100000
 7  CCN1CCN(CC(=O)Nc2ccc(C=CC(=O)c3ccc(OC)c(OC)c3)cc2)CC1  nM                  =          93
 8  COCCN1CCN(CC(=O)Nc2ccc(C=CC(=O)c3ccc(OC)c(OC)c3)cc2)CC1  nM                  =         120
 9  COc1ccc(C(=O)C=Cc2ccc(NC(=O)CN3CCN(C=O)CC3)cc2)cc1OC  nM                  =          48
10  COc1ccc(C(=O)C=Cc2ccc(NC(=O)CN3CCN(C4CCCC4)CC3)cc2)cc1OC  nM                  >      100000
11  COc1ccc(C(=O)C=Cc2ccc(NC(=O)CN3CCN(C)CC3)cc2)cc1OC  nM                  =          68
12  COc1ccc(C(=O)C=Cc2ccc(NC(=O)CN3CCN(CCCO)CC3)cc2)cc1OC  nM                  =          84
13  COc1ccc(C(=O)C=Cc2ccc(NC(=O)CN3CCN(S(C)(=O)=O)CC3)cc2)cc1OC  nM                  =         158

---

Biological target: recombinant hMAO B (Homo sapiens, UniProt P27338)
Assay: MAO B inhibition, fluorometric method
Format: biochemical
Conditions: MAO B IC50, text
pIC50: −log10 of the molar value.
# key: entry, value: pIC50
property_label: pIC50

> print(dat)
                                 cpd.smiles  data.value
1  COc1ccc(C(=O)C=Cc2ccc(NC(=O)CN3CCN(C)CC3)cc2)cc1OC      > 6.00
2  COc1ccc(C(=O)C=Cc2ccc(NC(=O)CN3CCN(C(C)=O)CC3)cc2)cc1OC      > 6.00
3  COc1ccc(C(=O)C=Cc2ccc(NC(=O)CN3CCN(C=O)CC3)cc2)cc1OC      > 6.00

---

Target: hMAO A (Homo sapiens)
Sequence (P21397 1-527): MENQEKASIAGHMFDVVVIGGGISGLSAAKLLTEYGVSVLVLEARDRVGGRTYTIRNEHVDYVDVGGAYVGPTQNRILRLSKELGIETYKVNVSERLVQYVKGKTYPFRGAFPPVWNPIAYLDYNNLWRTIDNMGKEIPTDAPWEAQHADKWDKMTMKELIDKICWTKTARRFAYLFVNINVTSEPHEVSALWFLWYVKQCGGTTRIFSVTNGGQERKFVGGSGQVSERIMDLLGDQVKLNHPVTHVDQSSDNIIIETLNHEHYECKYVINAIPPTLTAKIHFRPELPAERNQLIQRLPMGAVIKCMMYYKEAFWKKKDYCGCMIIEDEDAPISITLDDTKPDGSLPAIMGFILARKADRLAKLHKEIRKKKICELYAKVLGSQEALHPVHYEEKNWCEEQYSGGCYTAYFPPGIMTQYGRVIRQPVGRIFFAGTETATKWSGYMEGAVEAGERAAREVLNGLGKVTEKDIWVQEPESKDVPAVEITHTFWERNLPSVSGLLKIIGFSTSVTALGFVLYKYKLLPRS
Experiment: MAO A inhibition, fluorometric method
Assay type: biochemical
pIC50: −log10 of the molar value.
# key: entry, value: pIC50
property_label: pIC50

> print(dat)
                                 cpd.smiles  data.value
1  COc1ccc(C(=O)C=Cc2ccc(NC(=O)CN3CCN(C=O)CC3)cc2)cc1OC      < 3.00
2  C#CCN1CCN(CC(=O)Nc2ccc(C=CC(=O)c3ccc(OC)c(OC)c3)cc2)CC1      < 4.00
3  COc1ccc(C(=O)C=Cc2ccc(NC(=O)CN3CCN(S(C)(=O)=O)CC3)cc2)cc1OC      < 3.00
4  COc1ccc(C(=O)C=Cc2ccc(NC(=O)CN3CCN(CCN(C)C)CC3)cc2)cc1OC      < 3.00
5  CCN1CCN(CC(=O)Nc2ccc(C=CC(=O)c3ccc(OC)c(OC)c3)cc2)CC1      < 4.00

---

# key: entry, value: inhibition at 1000 µM
Target: hMAO A (Homo sapiens, UniProt P21397)
Assay: MAO A inhibition, fluorometric method
Assay type: biochemical
Conditions: read-out: MAO A % inhibition
property_label: inhibition at 1000 µM (%)

> print(dat)
                                    compound         property.label  data.value
 1  COCCN1CCN(CC(=O)Nc2ccc(C=CC(=O)c3ccc(OC)c(OC)c3)cc2)CC1 [Compound 4h]  inhibition at 1000 µM        59.9
 2  COc1ccc(C(=O)C=Cc2ccc(NC(=O)CN3CCN(CCCO)CC3)cc2)cc1OC [Compound 4i]  inhibition at 1000 µM        41.1
 3  COc1ccc(C(=O)C=Cc2ccc(NC(=O)CN3CCN(C(C)=O)CC3)cc2)cc1OC [Compound 4g]  inhibition at 1000 µM          69
 4  CCN1CCN(CC(=O)Nc2ccc(C=CC(=O)c3ccc(OC)c(OC)c3)cc2)CC1 [Compound 4b]  inhibition at 1000 µM        53.1
 5  COc1ccc(C(=O)C=Cc2ccc(NC(=O)CN3CCN(CCN(C)C)CC3)cc2)cc1OC [Compound 4j]  inhibition at 1000 µM        47.7
 6  C=CCN1CCN(CC(=O)Nc2ccc(C=CC(=O)c3ccc(OC)c(OC)c3)cc2)CC1 [Compound 4d]  inhibition at 1000 µM          55
 7  COc1ccc(C(=O)C=Cc2ccc(NC(=O)CN3CCN(C(C)C)CC3)cc2)cc1OC [Compound 4c]  inhibition at 1000 µM        47.4
 8  COc1ccc(C(=O)C=Cc2ccc(NC(=O)CN3CCN(CCCN(C)C)CC3)cc2)cc1OC [Compound 4k]  inhibition at 1000 µM          63
 9  C#CCN1CCN(CC(=O)Nc2ccc(C=CC(=O)c3ccc(OC)c(OC)c3)cc2)CC1 [Compound 4e]  inhibition at 1000 µM        61.4
10  COc1ccc(C(=O)C=Cc2ccc(NC(=O)CN3CCN(C=O)CC3)cc2)cc1OC [Compound 4f]  inhibition at 1000 µM        40.8
11  COc1ccc(C(=O)C=Cc2ccc(NC(=O)CN3CCN(S(C)(=O)=O)CC3)cc2)cc1OC [Compound 4m]  inhibition at 1000 µM        39.4
12  COc1ccc(C(=O)C=Cc2ccc(NC(=O)CN3CCN(C)CC3)cc2)cc1OC [Compound 4a]  inhibition at 1000 µM        47.7
13  COc1ccc(C(=O)C=Cc2ccc(NC(=O)CN3CCN(C4CCCC4)CC3)cc2)cc1OC [Compound 4l]  inhibition at 1000 µM        36.7
